METHOD SUMMARY: label from the status in PepcDB records
OBSERVATION TYPE: protein production

Study these solved cases before continuing.
MTENELLTRCGGKCELCGSDVELAIYDLPASDGHENEIMICENCSSQIAAPDTMDMNHWRCLNDSMWSQVPAVQVMSYRMLKRLSGESWAQDLLDMLYLEDDLRAWGDAEAAAASDDTPPTLDSNGAVLNAGDTVVIIKDLNVKGTSFVAKRGTAVRNIALTNNPEHIEGRVNGTRIVILTCFVKKSLEHHHHHH	not failed
MEDGHISSWWVVDLGEEHQLMCNYYTFRQDGSRAFTRFWKFQGSMDGKTWTDLRVHEDDQTMCKAGQFASWPITAANALLPFRFFRLVLTGPTADTSTPWNFCICYLELYGYFR	failed
LRKQVEELFERKYAQAIKAKGPVTIPYPLFQSHVEDLYVEGLPEGIPFRRPSTYGIPRLERILLAKERIRFVIKKHELLNSTREDL	not failed
ATLKQLDGIHVTILHKEEGAGLGFSLAGGADLENKVITVHRVFPNGLASQEGTIQKGNEVLSINGKSLKGTTHHDALAILRQAREPRQAVIVTRKLTPEAMPDLNS	not failed
MKIEHVALWTTNLEQMKQFYVTYFGATANDLYENKTKGFNSYFLSFEDGARLEIMSRTDVTGKTTGENLGWAHIAISTGTKEAVDELTEKLRQDGFAIAGEPRMTGDGYYESVVLDPEGNRIEITW	not failed

Exam item: Return value of protein production for input MSVVDPSLIERIIRDDVRAMGAYHVPDSHGLVKLDAMENPYRLPPALRSELAARLGEVALNRYPVPSSEALRAKLKEVMQVPAGMEVLLGNGSDEIISMLALAAARPGAKVMAPVPGFVMYAMSAQFAGLEFVGVPLRADFTLDRGAMLAAMAEHQPAIVYLAYPNNPTGNLFDAADMEAIVRAAQGSVCRSLVVVDEAYQPFAQESWMSRLTDFGNLLVMRTVSKLGLAGIRLGYVAGDPQWLEQLDKVRPPYNVNVLTEATALFALEHVAVLDEQAAQLRAERSRVAEGMAAHGGVTVFPSAANFLLARVPDAAQTFDRLLARKVLIKNVSKMHPLLANCLRVTVSTPEENAQFLEAFAASLQD , no commentary.
Marked response: not failed

Exam item: Provide one value: measured protein production of MLQIIFLVIGLFIIVLALSFAFKRYARLILWSSAITLFAGTLLLVGIGVINPIDGDNTGSTTFWGTIITLISGAALAFCAEMLKEGNKGKTKVQNGNSSVSGKQTADNEETVVLIGMLHTELAIKVFAKAIEAGYIGEKGSHYKWNDSKVLLAYMCGRIYCGDKPEYSEMDEKSYWKFGRMGVFPDTELSNLFEMPDLGQSRSNRKDLAVPAKSKEIDKFFE
Marked response: failed

Exam item: Give protein production for the following sequence: MEFGYIGLMVSVVLIGISVYGFLNSKNIVRIFLSSEILVNASILIVFSVSSLTNQVYLPIYFSLFAIGMALVEIVVAFAAIFLYYKNKGSLEVE
Marked response: failed
